The following compounds are listed with their measured melting point values.

O=C(O)c1cnn(Cc2ccc(-c3noc(C(F)(F)F)n3)s2)c1 = 182 to 185 °C
CCCOC(=O)c1ncn(Cc2ccc(-c3noc(C(F)(F)F)n3)s2)n1 = 140 to 160 °C

Turning now to a further compound:
Prompt: For the compound `CCOC(=O)c1ccn(Cc2ccc(-c3noc(C(F)(F)F)n3)s2)n1` , give its reported melting point.
Completion: 120 to 124 °C

###

Property: melting point; scope: individual compounds

Example results:
COCCNC(=O)c1cnn(Cc2ccc(-c3noc(C(F)(F)F)n3)s2)c1 = 135.3 to 137.9 °C
CC(c1ccc(-c2noc(C(F)(F)F)n2)s1)n1cc(C(=O)O)cn1 (stereo not drawn) = 133 to 143 °C
CCOC(=O)c1ncn(Cc2ccc(-c3noc(C(F)(F)F)n3)s2)n1 = 136 to 140 °C

Attention now turns to another entry.
Prompt: Quickly give me recorded melting point for `CCCOC(=O)c1ccn(Cc2ccc(-c3noc(C(F)(F)F)n3)s2)n1`
Completion: 88 to 94 °C

###

MEASUREMENT_NAME: melting point

CNC(=O)c1cnn(Cc2ccc(-c3noc(C(F)(F)F)n3)s2)c1 = 150.8 to 155.7 °C
CNC(=O)c1ccn(Cc2ccc(-c3noc(C(F)(F)F)n3)s2)n1 = 124 to 126 °C
O=C(O)c1ccnn1Cc1ccc(-c2noc(C(F)(F)F)n2)s1 = 145 to 165 °C
CONC(=O)c1ncn(Cc2ccc(-c3noc(C(F)(F)F)n3)s2)n1 = 168 to 178 °C
CN(C)c1ncn(Cc2ccc(-c3noc(C(F)(F)F)n3)s2)n1 = 113 to 116 °C
CONC(=O)c1ccnn1Cc1ccc(-c2noc(C(F)(F)F)n2)s1 = 105 to 115 °C
CNC(=O)c1ncnn1Cc1ccc(-c2noc(C(F)(F)F)n2)s1 = 132 to 140 °C
CNC(=O)c1ccnn1Cc1ccc(-c2noc(C(F)(F)F)n2)s1 = 148 to 151 °C

Consider the record given below.
Prompt: Read off the recorded melting point for `O=C(O)c1ncn(Cc2ccc(-c3noc(C(F)(F)F)n3)s2)n1`
Completion: 210 to 220 °C

###

- Test system: Puccinia recondita f. Sp. Tritici
- TEST: Fungicidal activity against Puccinia recondita f. sp. tritici / wheat / leaf disc curative (brown rust)
- Type: in vivo
- SETTINGS: foliar, 24 h, 200 ppm in the applied formulation, wheat leaf segments cv. Kanzler, curative (applied 1 day after inoculation), compared to untreated, read-out: disease control
List of pest or weed control at 200 ppm values.

CN(C)C(=O)c1ccnn1Cc1ccc(-c2noc(C(F)(F)F)n2)s1 = ≥ 80%

Prompt: // fetch pest or weed control at 200 ppm given entry `CCCOC(=O)c1ccn(Cc2ccc(-c3noc(C(F)(F)F)n3)s2)n1`
Completion: ≥ 80%

Prompt: Indicate its recorded pest or weed control at 200 ppm; the compound in question is `COC(=O)c1ccnn1Cc1ccc(-c2noc(C(F)(F)F)n2)s1`
Completion: ≥ 80%

Prompt: Entry `COC(=O)c1ncnn1Cc1ccc(-c2noc(C(F)(F)F)n2)s1` needs its pest or weed control at 200 ppm filled in; supply it.
Completion: ≥ 80%

Prompt: Using the record for `COc1ccc2ncn(Cc3ccc(-c4noc(C(F)(F)F)n4)s3)c2c1` , state its measured pest or weed control at 200 ppm.
Completion: ≥ 80%

Prompt: Look up and state reported pest or weed control at 200 ppm for `C#CCNC(=O)c1ncn(Cc2ccc(-c3noc(C(F)(F)F)n3)s2)n1`
Completion: ≥ 80%

Prompt: Answer with the recorded pest or weed control at 200 ppm of `COc1ccc2c(c1)ncn2Cc1ccc(-c2noc(C(F)(F)F)n2)s1` only.
Completion: ≥ 80%

Prompt: Kindly indicate its recorded pest or weed control at 200 ppm. Item: `CN(C)C(=O)c1ncnn1Cc1ccc(-c2noc(C(F)(F)F)n2)s1`
Completion: ≥ 80%

Prompt: Please indicate pest or weed control at 200 ppm recorded for `CNC(=O)c1cnn(Cc2ccc(-c3noc(C(F)(F)F)n3)s2)c1`
Completion: ≥ 80%

###

- Test system: Puccinia recondita f. Sp. Tritici
- TEST: Fungicidal activity against Puccinia recondita f. sp. tritici / wheat / leaf disc preventative (brown rust)
- Assay type: in vivo
- SETTINGS: foliar, 200 ppm in the applied formulation, wheat leaf segments cv. Kanzler, preventative (inoculated 1 day after application), compared to untreated, read-out: disease control
MEASUREMENT_NAME: pest or weed control at 200 ppm

Prompt: Input `CON(C)C(=O)c1cnn(Cc2ccc(-c3noc(C(F)(F)F)n3)s2)c1` , output reported pest or weed control at 200 ppm.
Completion: ≥ 80%

Prompt: Supply recorded pest or weed control at 200 ppm for `CCCOC(=O)c1ncnn1Cc1ccc(-c2noc(C(F)(F)F)n2)s1` here.
Completion: ≥ 80%

Prompt: Using the record for `O=C(O)c1ccnn1Cc1ccc(-c2noc(C(F)(F)F)n2)s1` , state its measured pest or weed control at 200 ppm.
Completion: ≥ 80%

###

- Test system: Puccinia recondita f. Sp. Tritici
- TEST: Fungicidal activity against Puccinia recondita f. sp. tritici / wheat / leaf disc preventative (brown rust)
- Format: in vivo
- SETTINGS: foliar, 200 ppm in the applied formulation, wheat leaf segments cv. Kanzler, preventative (inoculated 1 day after application), compared to untreated, read-out: disease control
MEASUREMENT_NAME: pest or weed control at 200 ppm

Examples with answers:
O=C(NC1CCC1)c1ncn(Cc2ccc(-c3noc(C(F)(F)F)n3)s2)n1 [Compound 1.91] = ≥ 80%
CCOC(=O)c1ccn(Cc2ccc(-c3noc(C(F)(F)F)n3)s2)n1 [Compound 1.42] = ≥ 80%
FC(F)(F)c1nc(-c2ccc(Cn3nnnc3-c3ccccc3Br)s2)no1 [Compound 1.10] = ≥ 80%
CCNC(=O)c1ccn(Cc2ccc(-c3noc(C(F)(F)F)n3)s2)n1 [Compound 1.120] = ≥ 80%
N#Cc1cnn(Cc2ccc(-c3noc(C(F)(F)F)n3)s2)c1 [Compound 1.11] = ≥ 80%
C=CCNC(=O)c1ccn(Cc2ccc(-c3noc(C(F)(F)F)n3)s2)n1 [Compound 1.122] = ≥ 80%

Prompt: Assign pest or weed control at 200 ppm to the following record: COCCNC(=O)c1cnn(Cc2ccc(-c3noc(C(F)(F)F)n3)s2)c1 [Compound 1.39]
Completion: ≥ 80%

Prompt: State its pest or weed control at 200 ppm for this compound: C#CCNC(=O)c1ncn(Cc2ccc(-c3noc(C(F)(F)F)n3)s2)n1 [Compound 1.98]
Completion: ≥ 80%

Prompt: Report pest or weed control at 200 ppm, nothing else, for this compound: CC(C)NC(=O)c1ccnn1Cc1ccc(-c2noc(C(F)(F)F)n2)s1 [Compound 1.157]
Completion: ≥ 80%

Prompt: Return value of pest or weed control at 200 ppm for input CON(C)C(=O)c1cnn(C(C)c2ccc(-c3noc(C(F)(F)F)n3)s2)c1 (stereo not drawn) [Compound 1.68] , no commentary.
Completion: ≥ 80%

Prompt: Please report the measured pest or weed control at 200 ppm for CCOC(=O)c1cnn(Cc2cc(-c3noc(C(F)(F)F)n3)cs2)c1 [Compound 1.26]
Completion: ≥ 80%

###

Measured melting point of individual entries

Guide cases for melting point, answers given:
CONC(=O)c1ccn(Cc2ccc(-c3noc(C(F)(F)F)n3)s2)n1 = 134 to 141 °C
CCOC(=O)c1cnn(Cc2cc(-c3noc(C(F)(F)F)n3)cs2)c1 = 119 to 123 °C
CNC(=O)c1ncn(Cc2ccc(-c3noc(C(F)(F)F)n3)s2)n1 = 198 to 218 °C

Prompt: Provide measured melting point value, entry: CC(c1ccc(-c2noc(C(F)(F)F)n2)s1)n1cc(C(=O)N2CCC2)cn1 (centres unmarked)
Completion: 76 to 78 °C

Prompt: Please supply the value of reported melting point for the item `CN(C)C(=O)c1ccn(Cc2ccc(-c3noc(C(F)(F)F)n3)s2)n1`
Completion: 90 to 96 °C
